Source: patent US20080004290A1

// Selectivity Index HT29 lookup, one value per entry
Test system: HT29 cells
EXPERIMENTAL DETAILS: Cell survival assay (SRB)
Assay type: cell-based, human
CONDITION CONTEXT: Table 13; S enantiomer; IC50(NFF)/IC50(cancer cell line)
MEASURED METRIC: Selectivity Index HT29

[
  {
    "SMILES REPRESENTATION": "CC(C)COC(=O)N[C@@H](CCCCCC(=O)NO)C(=O)Nc1cccc2cccnc12",
    "REPORTED MEASUREMENT": 0.2
  },
  {
    "SMILES REPRESENTATION": "O=C(CCCCC[C@H](NC(=O)c1ccc(Br)cc1)C(=O)Nc1ccc(-c2ccccc2)cc1)NO",
    "REPORTED MEASUREMENT": 0.6
  },
  {
    "SMILES REPRESENTATION": "O=C(CCCCC[C@H](NC(=O)c1cc2ccccc2[nH]1)C(=O)Nc1cccc2cccnc12)NO",
    "REPORTED MEASUREMENT": 4
  },
  {
    "SMILES REPRESENTATION": "CN(C)c1ccc(C(=O)N[C@@H](CCCCCC(=O)NO)C(=O)Nc2cccc3cccnc23)cc1",
    "REPORTED MEASUREMENT": 3
  },
  {
    "SMILES REPRESENTATION": "O=C(CCCCC[C@H](NC(=O)OCc1ccccc1)C(=O)Nc1cccc2cccnc12)NO",
    "REPORTED MEASUREMENT": 1.4
  },
  {
    "SMILES REPRESENTATION": "O=C(/C=C/c1ccccc1)N[C@@H](CCCCCC(=O)NO)C(=O)Nc1cccc2cccnc12",
    "REPORTED MEASUREMENT": 13
  }
]

----------
System: HT29 cells
EXPERIMENTAL DETAILS: Cell survival assay (SRB)
Type: cell-based, human
CONDITION CONTEXT: Homo sapiens, HT-29; HT29 (colon); read-out: Cytoselectivities (nM) HT29
MEASURED METRIC: IC50 (nM)

[
  {
    "MOLECULE": "CC(C)COC(=O)N[C@@H](CCCCCC(=O)NO)C(=O)Nc1cccc2cccnc12 [Example 149]",
    "UNIT SPEC": "nM",
    "REPORTED MEASUREMENT": 360
  },
  {
    "MOLECULE": "O=C(CCCCC[C@H](NC(=O)c1cc2ccccc2[nH]1)C(=O)Nc1cccc2cccnc12)NO [Example 132]",
    "UNIT SPEC": "nM",
    "REPORTED MEASUREMENT": 79
  },
  {
    "MOLECULE": "CN(C)c1ccc(C(=O)N[C@@H](CCCCCC(=O)NO)C(=O)Nc2cccc3cccnc23)cc1 [Example 126]",
    "UNIT SPEC": "nM",
    "REPORTED MEASUREMENT": 178
  },
  {
    "MOLECULE": "O=C(CCCCC[C@H](NC(=O)c1ccc(Br)cc1)C(=O)Nc1ccc(-c2ccccc2)cc1)NO [Example 161]",
    "UNIT SPEC": "nM",
    "REPORTED MEASUREMENT": 307
  },
  {
    "MOLECULE": "O=C(/C=C/c1ccccc1)N[C@@H](CCCCCC(=O)NO)C(=O)Nc1cccc2cccnc12 [Example 146]",
    "UNIT SPEC": "nM",
    "REPORTED MEASUREMENT": 99
  },
  {
    "MOLECULE": "O=C(CCCCC[C@H](NC(=O)OCc1ccccc1)C(=O)Nc1cccc2cccnc12)NO [Example 148]",
    "UNIT SPEC": "nM",
    "REPORTED MEASUREMENT": 334
  }
]

----------
Test system: MM96L melanoma cells
EXPERIMENTAL DETAILS: Cell survival assay (clonogenic survival, SRB)
Format: cell-based, human
CONDITION CONTEXT: Table 8; IC50 (NFF)/IC50 (MM96L)

[
  {
    "MOLECULE": "CN(C)c1ccc(C(=O)NC(CSCCCC(=O)NO)C(=O)NCc2ccc(C(=O)NC3CCCc4ccccc43)cc2)cc1 (mixture of isomers)",
    "SUBJECT OF TEST": "MM96L melanoma cells",
    "Selectivity": 1.9
  },
  {
    "MOLECULE": "CN(C)c1ccc(C(=O)N[C@@H](CSCCCC(=O)NO)C(=O)NCc2ccc(C(=O)Nc3ccc4ncccc4c3)cc2)cc1",
    "SUBJECT OF TEST": "MM96L melanoma cells",
    "Selectivity": 2.5
  },
  {
    "MOLECULE": "CN(C)c1ccc(C(=O)N[C@@H](CSCCCC(=O)NO)C(=O)NCc2ccc(C(=O)Nc3ccc(-c4ccccc4)cc3)cc2)cc1",
    "SUBJECT OF TEST": "MM96L melanoma cells",
    "Selectivity": 2.2
  },
  {
    "MOLECULE": "CN(C)c1ccc(C(=O)N[C@@H](CSCCCC(=O)NO)C(=O)NCc2ccc(C(=O)Nc3ccccc3)cc2)cc1",
    "SUBJECT OF TEST": "MM96L melanoma cells",
    "Selectivity": 8.2
  },
  {
    "MOLECULE": "CC(C)CNC(=O)c1ccc(CNC(=O)[C@H](CSCCCC(=O)NO)NC(=O)c2ccc(N(C)C)cc2)cc1",
    "SUBJECT OF TEST": "MM96L melanoma cells",
    "Selectivity": 5.0
  },
  {
    "MOLECULE": "CN(C)c1ccc(C(=O)N[C@@H](CSCCCC(=O)NO)C(=O)NCc2ccc(C(=O)Nc3ccncc3)cc2)cc1",
    "SUBJECT OF TEST": "MM96L melanoma cells",
    "Selectivity": 5.7
  },
  {
    "MOLECULE": "CN(C)c1ccc(NC(=O)c2ccc(CNC(=O)[C@H](CSCCCC(=O)NO)NC(=O)c3ccc(N(C)C)cc3)cc2)cc1",
    "SUBJECT OF TEST": "MM96L melanoma cells",
    "Selectivity": 4.5
  },
  {
    "MOLECULE": "CN(C)c1ccc(C(=O)N[C@@H](CSCCCC(=O)NO)C(=O)NCc2ccc(C(=O)Nc3ccccc3Cc3ccccc3)cc2)cc1",
    "SUBJECT OF TEST": "MM96L melanoma cells",
    "Selectivity": 2.4
  },
  {
    "MOLECULE": "CN(C)c1ccc(C(=O)N[C@@H](CSCCCC(=O)NO)C(=O)NCc2ccc(C(=O)Nc3cccc4c3CCCC4)cc2)cc1",
    "SUBJECT OF TEST": "MM96L melanoma cells",
    "Selectivity": 3.2
  },
  {
    "MOLECULE": "CN(C)c1ccc(C(=O)N[C@@H](CSCCCC(=O)NO)C(=O)NCc2ccc(C(=O)NC3CCCC3)cc2)cc1",
    "SUBJECT OF TEST": "MM96L melanoma cells",
    "Selectivity": 4.4
  },
  {
    "MOLECULE": "CN(C)c1ccc(C(=O)N[C@@H](CSCCCC(=O)NO)C(=O)NCc2ccc(C(=O)NCc3ccccc3)cc2)cc1",
    "SUBJECT OF TEST": "MM96L melanoma cells",
    "Selectivity": 10.0
  },
  {
    "MOLECULE": "CN(C)c1ccc(C(=O)N[C@@H](CSCCCC(=O)NO)C(=O)NCc2ccc(C(=O)NCCCCCCO)cc2)cc1",
    "SUBJECT OF TEST": "MM96L melanoma cells",
    "Selectivity": 4.0
  },
  {
    "MOLECULE": "CN(C)c1ccc(C(=O)N[C@@H](CSCCCC(=O)NO)C(=O)NCc2ccc(C(=O)NCc3nc4ccccc4[nH]3)cc2)cc1",
    "SUBJECT OF TEST": "MM96L melanoma cells",
    "Selectivity": 4.0
  }
]

----------
// Selectivity Index JAM lookup, one value per entry
System: JAM ovarian cancer cells
EXPERIMENTAL DETAILS: Cell survival assay (SRB)
Format: cell-based, human
CONDITION CONTEXT: Table 13; S enantiomer; IC50(NFF)/IC50(cancer cell line)

[
  {
    "SMILES REPRESENTATION": "O=C(CCCCC[C@H](NC(=O)c1cc2ccccc2[nH]1)C(=O)Nc1cccc2cccnc12)NO",
    "Selectivity Index JAM": 7
  },
  {
    "SMILES REPRESENTATION": "CN(C)c1ccc(C(=O)N[C@@H](CCCCCC(=O)NO)C(=O)Nc2cccc3cccnc23)cc1",
    "Selectivity Index JAM": 7
  },
  {
    "SMILES REPRESENTATION": "O=C(CCCCC[C@H](NC(=O)OCc1ccccc1)C(=O)Nc1cccc2cccnc12)NO",
    "Selectivity Index JAM": 2
  },
  {
    "SMILES REPRESENTATION": "O=C(CCCCC[C@H](NC(=O)c1ccc(Br)cc1)C(=O)Nc1ccc(-c2ccccc2)cc1)NO",
    "Selectivity Index JAM": 1.0
  },
  {
    "SMILES REPRESENTATION": "O=C(/C=C/c1ccccc1)N[C@@H](CCCCCC(=O)NO)C(=O)Nc1cccc2cccnc12",
    "Selectivity Index JAM": 25
  },
  {
    "SMILES REPRESENTATION": "CC(C)COC(=O)N[C@@H](CCCCCC(=O)NO)C(=O)Nc1cccc2cccnc12",
    "Selectivity Index JAM": 0.4
  }
]
